Molecular target: Human recombinant purified glucocorticoid receptor (Homo sapiens)
Sequence (P04150 whole entry): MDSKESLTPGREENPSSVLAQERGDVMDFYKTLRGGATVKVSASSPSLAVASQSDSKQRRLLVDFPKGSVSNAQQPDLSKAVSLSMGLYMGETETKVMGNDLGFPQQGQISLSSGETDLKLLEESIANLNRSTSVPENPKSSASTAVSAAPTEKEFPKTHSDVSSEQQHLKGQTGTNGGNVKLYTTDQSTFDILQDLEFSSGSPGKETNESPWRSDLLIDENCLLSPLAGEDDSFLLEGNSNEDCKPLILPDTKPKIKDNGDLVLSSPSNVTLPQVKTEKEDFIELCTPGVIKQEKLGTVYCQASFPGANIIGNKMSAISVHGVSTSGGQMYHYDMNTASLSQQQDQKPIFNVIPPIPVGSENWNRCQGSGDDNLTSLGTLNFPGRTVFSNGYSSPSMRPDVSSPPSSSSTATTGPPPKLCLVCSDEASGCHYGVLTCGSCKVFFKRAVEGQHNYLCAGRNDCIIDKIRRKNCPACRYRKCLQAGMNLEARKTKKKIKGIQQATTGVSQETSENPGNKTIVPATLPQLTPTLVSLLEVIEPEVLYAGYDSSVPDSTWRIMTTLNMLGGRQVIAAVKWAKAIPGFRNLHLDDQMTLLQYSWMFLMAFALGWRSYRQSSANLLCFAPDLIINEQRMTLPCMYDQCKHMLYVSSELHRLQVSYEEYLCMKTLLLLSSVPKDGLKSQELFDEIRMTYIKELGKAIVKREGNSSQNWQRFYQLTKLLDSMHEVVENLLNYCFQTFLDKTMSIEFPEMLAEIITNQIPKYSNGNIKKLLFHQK
Assay: Glucocorticoid receptor competitive binding assay (3H-dexamethasone)
Details: competition with 2 nM 3H-Dexamethasone, 1 nM GR, 4° C. overnight; read-out: Binding Affinity Ki
pKi: −log10 of the molar value.
Kind request: treat 6 as inclusive, so pKi at 6 or higher is met, anything lower is not met.

Worked examples follow.
Query: Quick check: does `Cc1noc(=O)c2ccc(NC/C(CC3(c4ccccc4C(F)(F)F)CCC3)=N\O)cc12` have pKi greater than or equal to 6?
Response: met

Query: Quick check: does `O/N=C(\CNc1cccc(-c2cnco2)c1)CC1(c2ccccc2C(F)(F)F)CCC1` have pKi greater than or equal to 6?
Response: not met

Query: Quick check: does `Cc1noc(=O)c2ccc(NCC(=O)CC3(c4ccccc4C(F)(F)F)CCC3)cc12` have pKi greater than or equal to 6?
Response: met

---
Query: Quick check: does `O=C(CC1(c2ccccc2C(F)(F)F)CCC1)C(=O)Nc1cccc(-c2ccno2)c1` have pKi greater than or equal to 6?
Response: not met
